Measured Inhibition zone by item
test system: Acinetobacter baumannii isolates; test: Antimicrobial susceptibility test, disc diffusion method (CLSI M100-S24); assay type: cell-based; settings: isolate AB2; disc diffusion
measurement-label: Inhibition zone (mm)

>>> result_value("CCN1CCN(C(=O)N[C@@H](C(=O)N[C@@H]2C(=O)N3[C@@H]2SC(C)(C)[C@@H]3C(=O)O)c2ccccc2)C(=O)C1=O")
20
>>> result_value("C[C@H]1COc2c(N3CCN(C)CC3)c(F)cc3c(=O)c(C(=O)O)cn1c23")
30
>>> result_value("O=C(N[C@H](CO)[C@H](O)c1ccc([N+](=O)[O-])cc1)C(Cl)Cl")
24
